subject-of-test: human calcium receptor (Homo sapiens, UniProt P41180, R990G)
Construct: expressed in transfected cells; host or cells: HEK 293
Sequence (P41180 20-1078 R990G): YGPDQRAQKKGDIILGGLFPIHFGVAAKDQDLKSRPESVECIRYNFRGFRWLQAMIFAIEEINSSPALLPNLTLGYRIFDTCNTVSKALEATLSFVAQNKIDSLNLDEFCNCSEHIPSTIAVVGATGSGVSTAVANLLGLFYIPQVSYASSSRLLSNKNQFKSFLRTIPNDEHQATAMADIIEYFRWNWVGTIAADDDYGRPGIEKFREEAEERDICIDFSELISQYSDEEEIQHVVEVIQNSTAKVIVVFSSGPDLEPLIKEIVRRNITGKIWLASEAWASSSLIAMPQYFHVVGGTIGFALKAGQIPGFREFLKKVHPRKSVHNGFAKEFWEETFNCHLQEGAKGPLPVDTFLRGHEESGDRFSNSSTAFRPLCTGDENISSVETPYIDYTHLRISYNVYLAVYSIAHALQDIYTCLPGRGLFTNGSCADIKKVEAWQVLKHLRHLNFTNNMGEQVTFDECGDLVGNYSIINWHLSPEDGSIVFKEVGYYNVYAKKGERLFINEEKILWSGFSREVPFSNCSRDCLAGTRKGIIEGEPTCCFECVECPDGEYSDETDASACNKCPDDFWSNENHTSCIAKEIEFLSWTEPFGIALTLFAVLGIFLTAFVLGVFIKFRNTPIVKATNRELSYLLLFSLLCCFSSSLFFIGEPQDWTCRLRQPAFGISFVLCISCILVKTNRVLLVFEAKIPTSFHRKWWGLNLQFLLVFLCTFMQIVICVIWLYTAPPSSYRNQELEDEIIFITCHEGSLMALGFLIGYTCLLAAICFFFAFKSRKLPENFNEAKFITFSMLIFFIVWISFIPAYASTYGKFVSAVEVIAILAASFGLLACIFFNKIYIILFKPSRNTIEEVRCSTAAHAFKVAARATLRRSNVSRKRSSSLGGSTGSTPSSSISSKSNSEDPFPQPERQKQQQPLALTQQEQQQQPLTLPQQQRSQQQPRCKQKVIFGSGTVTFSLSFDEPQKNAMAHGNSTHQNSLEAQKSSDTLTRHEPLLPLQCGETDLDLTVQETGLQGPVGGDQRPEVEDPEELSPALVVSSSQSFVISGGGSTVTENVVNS
run-description: increases in [Ca^2+ ]i in HEK-293 cells expressing the human calcium receptor (fura-2 loaded HEK 293/pHuPCaR4.0 cells), % activity
Assay type: cell-based
condition-description: 3300 ng/mL
Structures can show the parent of a compound that is named as a salt.
Assign % activity to each entry below.
Write it as a number; the unit % goes unstated.

# % activity lookup, item COc1cccc([C@@H](C)NCCCc2ccccc2OC)c1 [Compound 8U, hydrochloride]
123

# % activity lookup, item COc1cccc(C(C)NC(C)c2cccc(OC)c2)c1 (centres unmarked) [Compound 16O]
129

# % activity lookup, item CCOc1cccc([C@@H](C)NCCCc2ccccc2Cl)c1
123

# % activity lookup, item COc1cccc([C@@H](C)NCc2ccc(OC)c(OC)c2)c1 [Compound 25K]
124

# % activity lookup, item CC(NC(C)c1cccc2ccccc12)c1ccc(Cl)cc1 (centres unmarked) [Compound 14S]
116

# % activity lookup, item Cc1ccc(CNCc2cccc3c(Br)cccc23)cc1C [Compound 23D]
91

# % activity lookup, item COc1ccc(C(N[C@H](C)c2cccc3ccccc23)C2CC2)cc1 (some centres unmarked) [Compound 17H]
126

# % activity lookup, item COc1cccc([C@@H](C)NC[C@@H](C)c2ccc(CC(C)C)cc2)c1 [Compound 13Y]
106

# % activity lookup, item COc1ccccc1CCCN[C@H](C)c1cccc2ccccc12 [Compound 16I]
121

# % activity lookup, item COc1cccc([C@@H](C)NC(C)CCc2cc(F)cc(F)c2)c1 (some centres unmarked) [Compound 24P]
140

# % activity lookup, item C[C@@H](NCCCc1ccccc1Cl)c1cccc(OCC(F)(F)F)c1 [Compound 20Y]
117

# % activity lookup, item COc1ccc(CNC(C)c2c(OC)ccc3ccccc23)cc1C (centres unmarked) [Compound 18B]
111

# % activity lookup, item CCOc1ccc(CN[C@H](C)c2cccc3ccccc23)cc1Cl [Compound 24Y]
119

# % activity lookup, item COc1cccc([C@@H](C)NCC(C)=Cc2ccccc2)c1 [Compound 25G]
130

---

Assign % activity to each entry below.
subject-of-test: human calcium receptor (Homo sapiens, UniProt P41180, R990G)
Construct: expressed in transfected cells; host or cells: HEK 293
run-description: increases in [Ca^2+ ]i in HEK-293 cells expressing the human calcium receptor (fura-2 loaded HEK 293/pHuPCaR4.0 cells), % activity
Type: cell-based
condition-description: 3300 ng/mL
Write it as a number; the unit % goes unstated.

# % activity lookup, item COc1ccc(CNC(C)c2ccc(C)c(C)c2)cc1C (centres unmarked) [Compound 24G]
109

# % activity lookup, item COc1cccc([C@@H](C)NCC=Cc2ccc(C(C)C)cc2)c1 [Compound 12E]
117

# % activity lookup, item CCOC(=O)COc1cccc(C(C)NCc2ccc(OC)c(C)c2)c1 (centres unmarked) [Compound 24V]
127

# % activity lookup, item COc1cccc([C@@H](C)NCCCc2ccc(OC(F)(F)F)cc2)c1 [Compound 21N]
124

# % activity lookup, item COc1ccc(CNC(C)c2ccc(Cl)cc2)cc1C (centres unmarked) [Compound 23O]
111

---

subject-of-test: human calcium receptor (Homo sapiens, UniProt P41180, R990G)
Construct: expressed in transfected cells; host or cells: HEK 293
run-description: increases in [Ca^2+ ]i in HEK-293 cells expressing the human calcium receptor (fura-2 loaded HEK 293/pHuPCaR4.0 cells), % activity
Type: cell-based
condition-description: 330 ng/mL
Assign % activity to each entry below.
Write it as a number; the unit % goes unstated.

Item: COc1cccc(C(C)NC(C)c2cccc3ccccc23)c1 (stereo not drawn) [Compound 14Z] Test system: human calcium receptor (Homo sapiens, UniProt P41180, R990G) Read-out: % activity Value: ?
103

Item: COc1cccc([C@@H](C)NCC(C)c2ccccc2)c1 (stereo partly drawn) [Compound 25N] Test system: human calcium receptor (Homo sapiens, UniProt P41180, R990G) Read-out: % activity Value: ?
73

Item: C[C@@H](NCc1ccc([N+](=O)[O-])cc1)c1cccc2ccccc12 [Compound 13W] Test system: human calcium receptor (Homo sapiens, UniProt P41180, R990G) Read-out: % activity Value: ?
109

Item: C[C@H](CCc1ccccc1)N[C@H](C)c1cccc2ccccc12 [Compound 21F] Test system: human calcium receptor (Homo sapiens, UniProt P41180, R990G) Read-out: % activity Value: ?
109

Item: COc1ccc(CNC(C)c2cccc3ccccc23)cc1C (stereo not drawn) [Compound 17Z] Test system: human calcium receptor (Homo sapiens, UniProt P41180, R990G) Read-out: % activity Value: ?
99

Item: COc1cccc([C@@H](C)NCc2cccc(OCc3ccccc3)c2)c1 [Compound 11W] Test system: human calcium receptor (Homo sapiens, UniProt P41180, R990G) Read-out: % activity Value: ?
81

Item: COc1cccc([C@@H](C)NCCCc2ccc(OC(F)(F)F)cc2)c1 [Compound 21N] Test system: human calcium receptor (Homo sapiens, UniProt P41180, R990G) Read-out: % activity Value: ?
98

Item: COc1ccc(CNC(C)c2cccc(SC)c2)cc1C (stereo not drawn) [Compound 24Z] Test system: human calcium receptor (Homo sapiens, UniProt P41180, R990G) Read-out: % activity Value: ?
138

Item: COc1cccc(C(C)NC(C)c2ccc(C(C)(C)C)cc2)c1 (mixture of isomers) [Compound 13G] Test system: human calcium receptor (Homo sapiens, UniProt P41180, R990G) Read-out: % activity Value: ?
128

Item: C[C@@H](NCc1cccc2ccccc12)c1cccc2ccccc12 [Compound 25L] Test system: human calcium receptor (Homo sapiens, UniProt P41180, R990G) Read-out: % activity Value: ?
97

Item: C[C@@H](NCCCc1ccccc1Cl)c1cccc(OCC(F)(F)F)c1 [Compound 20Y] Test system: human calcium receptor (Homo sapiens, UniProt P41180, R990G) Read-out: % activity Value: ?
95

Item: COc1ccc(CNC(C)c2cccc(F)c2)cc1C (stereo not drawn) [Compound 23K] Test system: human calcium receptor (Homo sapiens, UniProt P41180, R990G) Read-out: % activity Value: ?
107

Item: CC(O)c1ccc(CNC(C)c2cccc3ccccc23)cc1 (mixture of isomers) [Compound 17B] Test system: human calcium receptor (Homo sapiens, UniProt P41180, R990G) Read-out: % activity Value: ?
92

Item: CC(NCCC(c1ccccc1)c1ccccc1)c1cccc2ccccc12 (stereo not drawn) Test system: human calcium receptor (Homo sapiens, UniProt P41180, R990G) Read-out: % activity Value: ?
89

Item: COc1ccc([C@@H](C)N[C@H](C)c2cccc3ccccc23)cc1C.Cl [Compound 17P] Test system: human calcium receptor (Homo sapiens, UniProt P41180, R990G) Read-out: % activity Value: ?
101

Item: COc1ccccc1C(C)NCCC(c1ccccc1)c1ccccc1 (stereo not drawn) Test system: human calcium receptor (Homo sapiens, UniProt P41180, R990G) Read-out: % activity Value: ?
67

Item: COc1cc(OC)cc(C(C)NCCCc2ccccc2)c1 (stereo not drawn) Test system: human calcium receptor (Homo sapiens, UniProt P41180, R990G) Read-out: % activity Value: ?
54

Item: COc1ccc(CNC(C)c2cccc(Cl)c2)cc1C (stereo not drawn) [Compound 23N] Test system: human calcium receptor (Homo sapiens, UniProt P41180, R990G) Read-out: % activity Value: ?
96

Item: COc1cccc([C@@H](C)NCCCc2cc(F)cc(F)c2)c1 [Compound 24M] Test system: human calcium receptor (Homo sapiens, UniProt P41180, R990G) Read-out: % activity Value: ?
134

Item: COc1cccc(C(C)NC(C)c2cccc3ccccc23)c1 (stereo not drawn) [Compound 14Y] Test system: human calcium receptor (Homo sapiens, UniProt P41180, R990G) Read-out: % activity Value: ?
109

Item: C[C@@H](NCCc1ccccc1)c1cccc2ccccc12 [Compound 14N] Test system: human calcium receptor (Homo sapiens, UniProt P41180, R990G) Read-out: % activity Value: ?
89

Origin of measurements: patent US6211244A
